Field: Potency. Provide a value for each of the molecules that follow.
Test: qHTS assay to identify small molecule agonists of the TGF-beta/Smad signaling pathway - cell viability counter screen (AID 1346829); note: potency is the fitted concentration of half-maximal effect; nearly all actives have a fitted effect of over 45% in size
Details: SBE-bla HEK293T viability, CellTiter-Glo luminescence, 5 h; series mostly up to 76.8 µM
Results filed as inconclusive are left out. Calls of active or inactive are those of the source. Calls come from the whole dose curve; as a rule, active = well fitted cell-killing curve with a large enough effect in the repeat runs; inconclusive = weak or mixed curves, or effect the other way; inactive = flat fitted curve, though single readings scatter.

// known answers, use as guide
>>> value_measured("COc1ccc(OC)c(N=Nc2c(O)ccc3ccccc23)c1")
"43.6 µM (active)"
>>> value_measured("CCCCCN=C(N)N/N=C/c1c[nH]c2ccc(OC)cc12")
"23.9 µM (active)"
>>> value_measured("Oc1ccc(C2(c3ccc(O)c(C4CCCCC4)c3)CCCCC2)cc1C1CCCCC1")
"49 µM (active)"
>>> value_measured("O=C(CCCCCCCCc1cccnc1)N1CCC(C=C(c2ccccc2)c2ccccc2)CC1")
"54.9 µM (active)"

From here, focus on the item given below.
Challenge: Potency for C=C1C(CCl)(CCl)C2(Cl)C(Cl)C(Cl)C1(Cl)C2(Cl)Cl (stereo not given) ?
Response given: 54.3 µM (active)
